Numbers sourced from paper PMC12526156.

Assay: Metabolic stability in mouse liver microsomes
Assay type: in vitro ADME
Settings: mouse liver microsomes, 1 µM compound, 1 mg protein/mL, 37 °C, read-out: MLM t1/2
Where a SMILES comes first, the peptide text is derived from it. [ ]: non-standard residue; d: D form. The star is where a group is joined. dPhe(4-NO2) = N[C@H](Cc1ccc([N+](=O)[O-])cc1)C(=O)O; dPhe(3,4,5-F3) = N[C@H](Cc1cc(F)c(F)c(F)c1)C(=O)O; dTrp(1-Me) = Cn1cc(C[C@@H](N)C(=O)O)c2ccccc21; dPhe(3,4-F2) = N[C@H](Cc1ccc(F)c(F)c1)C(=O)O; dPhe(3,5-F2) = N[C@H](Cc1cc(F)cc(F)c1)C(=O)O; dPhe(3-F) = N[C@H](Cc1cccc(F)c1)C(=O)O; dPhe(2-F) = N[C@H](Cc1ccccc1F)C(=O)O; For = O=C*
Experimental Readout: half-life at 1 µM (min)
Numeric answer only, unit min assumed.

## Task Recorded half-life at 1 µM for Cn1cc(C[C@H]2NC(=O)[C@H](Cc3ccccc3)NC(=O)[C@H]3CCCN3C(=O)[C@H](Cc3ccccc3)NC2=O)c2ccccc21 [Analog 2, [D-Trp(Me)]CJ-15,208] (cyclo(F[dP]F[dTrp(1-Me)])) , please?
## Result 3.3

## Task Recorded half-life at 1 µM for O=C1N[C@H](Cc2ccc([N+](=O)[O-])cc2)C(=O)N[C@@H](Cc2ccccc2)C(=O)N2CCC[C@@H]2C(=O)N[C@H]1Cc1ccccc1 [Analog 16] (cyclo(F[dP]F[dPhe(4-NO2)])) , please?
## Result 4.4

## Task Recorded half-life at 1 µM for O=C1N[C@H](Cc2cc(F)c(F)cc2F)C(=O)N[C@@H](Cc2ccccc2)C(=O)N2CCC[C@@H]2C(=O)N[C@H]1Cc1ccccc1 , please?
## Result 1

## Task Recorded half-life at 1 µM for O=Cn1cc(C[C@H]2NC(=O)[C@H](Cc3ccccc3)NC(=O)[C@H]3CCCN3C(=O)[C@H](Cc3ccccc3)NC2=O)c2ccccc21 [Analog 3, [D-Trp(formamide)]CJ-15,208] (cyclo(F[dP]F[dW](For))) , please?
## Result 1.1

## Task Recorded half-life at 1 µM for O=C1N[C@H](Cc2ccccc2F)C(=O)N[C@@H](Cc2ccccc2)C(=O)N2CCC[C@@H]2C(=O)N[C@H]1Cc1ccccc1 [Analog 5] (cyclo(F[dP]F[dPhe(2-F)])) , please?
## Result 1.6

## Task Recorded half-life at 1 µM for O=C1N[C@H](Cc2cccc(F)c2)C(=O)N[C@@H](Cc2ccccc2)C(=O)N2CCC[C@@H]2C(=O)N[C@H]1Cc1ccccc1 [Analog 6, [D-Phe(m-F)^4]CJ-15,208] (cyclo(F[dP]F[dPhe(3-F)])) , please?
## Result 2.1

## Task Recorded half-life at 1 µM for O=C1N[C@H](Cc2ccc(F)c(F)c2)C(=O)N[C@@H](Cc2ccccc2)C(=O)N2CCC[C@@H]2C(=O)N[C@H]1Cc1ccccc1 [Analog 8] (cyclo(F[dP]F[dPhe(3,4-F2)])) , please?
## Result 1.1

## Task Recorded half-life at 1 µM for O=C1N[C@H](Cc2cc(F)c(F)c(F)c2)C(=O)N[C@@H](Cc2ccccc2)C(=O)N2CCC[C@@H]2C(=O)N[C@H]1Cc1ccccc1 [Analog 11] (cyclo(F[dP]F[dPhe(3,4,5-F3)])) , please?
## Result 2.9

## Task Recorded half-life at 1 µM for O=C1N[C@H](Cc2cc(F)cc(F)c2)C(=O)N[C@@H](Cc2ccccc2)C(=O)N2CCC[C@@H]2C(=O)N[C@H]1Cc1ccccc1 [Analog 9, [D-Phe(3,5-F2)^4]CJ-15,208] (cyclo(F[dP]F[dPhe(3,5-F2)])) , please?
## Result 1.2

## Task Recorded half-life at 1 µM for O=C1N[C@H](Cc2ccccc2)C(=O)N[C@@H](Cc2ccccc2)C(=O)N2CCC[C@@H]2C(=O)N[C@H]1Cc1ccccc1 [Analog 4, cyclo[Phe-D-Pro-Phe-D-Phe]] (cyclo(F[dP]F[dF])) , please?
## Result 1.6

## Task Recorded half-life at 1 µM for O=C1N[C@H](Cc2c[nH]c3ccccc23)C(=O)N[C@@H](Cc2ccccc2)C(=O)N2CCC[C@@H]2C(=O)N[C@H]1Cc1ccccc1 [Analog 1, cyclo[Phe-D-Pro-Phe-D-Trp]] (cyclo(F[dP]F[dW])) , please?
## Result 2.6
